# Tested on: KM12 colon
# PROCEDURE DETAILS: NCI tumour cell line growth inhibition, 48 h; in the data active = GI50 below about 0.43 µM; inactive = the rest
Permitted responses: active, inactive

Any idea what this test logged for Nc1nc(Cl)c2ncn(Cc3ccc(C45CC6CC(CC(C6)C4)C5)c(OCc4cc(F)c(F)cc4F)c3)c2n1 ? inactive

Any idea what this test logged for COc1cccc(-c2cc(=O)c3cc(N4CCN(C)CC4)ccc3[nH]2)c1 ? inactive

Any idea what this test logged for Oc1cn(-c2ccc(Cl)cc2)nc1-c1n[nH]c(=S)n1-c1ccc(F)cc1 ? inactive

Any idea what this test logged for CO[C@H]1C(=O)[C@]2(C)[C@@H](OC)C[C@H]3OC[C@@]3(OC(C)=O)[C@H]2[C@H](OC(=O)c2ccccc2)[C@]2(O)C[C@H](OC(=O)[C@H](O)[C@@H](NC(=O)OC(C)(C)C)c3ccccc3)C(C)=C1C2(C)C ? active

Any idea what this test logged for O=C(O)c1ccccc1NCn1nc(-c2ccccc2O)oc1=S ? inactive

Any idea what this test logged for COC(=O)c1ccc(NC(N)=NCCC(C)(C)c2ccc(C(F)(F)F)cc2)nc1 ? inactive

Any idea what this test logged for C/C(=C/CCC(C)[C@@H]1CC[C@]2(C)C3=C(CC[C@@]12C)[C@@]1(C)CCC(=O)C(C)(C)[C@@H]1CC3)C(=O)O (some centres not stated) ? inactive

* * *

# System: HL-60(TB) leukemia
# PROCEDURE DETAILS: NCI tumour cell line growth inhibition, 48 h
MEASUREMENT KIND: TGI

Here's what some known entries look like.
COMPOUND	STUDY SYSTEM	MEASUREMENT KIND	REPORTED RESULT
O=S(Nc1ccccc1)c1ccc(Cl)cc1 (stereo not given)	HL-60(TB) leukemia	TGI	> 100 µM
CC(C)(NO)/C(=N\O)c1ccccc1	HL-60(TB) leukemia	TGI	> 10 µM
COC(=O)CCC(C)[C@H]1CCC2C3CC[C@@H]4CC5(CC[C@]4(C)C3C[C@H](OC(C)=O)[C@@]21C)OOC1(CCCCC1)OO5 (stereo not given in full)	HL-60(TB) leukemia	TGI	8.89 µM
O=C([O-])c1ccc([I+]c2ccccc2)cc1	HL-60(TB) leukemia	TGI	> 100 µM
C[C@H]1CCC/C=C/[C@@H]2C[C@H](OC3OC(CO)C(O)C(O)C3O)C[C@H]2[C@H](O)/C=C/C(=O)O1 (stereo not given in full)	HL-60(TB) leukemia	TGI	> 100 µM
CCCCCCC(=O)OC[n+]1ccc2c(C)c3[nH]c4ccc(OC)cc4c3c(C)c2c1	HL-60(TB) leukemia	TGI	1.7 µM
O=C(O)c1ccccc1NCn1nc(-c2ccccc2O)oc1=S	HL-60(TB) leukemia	TGI	> 100 µM
Cc1ccc(C(=O)Nc2ccc(CP(=O)(O)O)cc2CP(=O)(O)O)cc1N	HL-60(TB) leukemia	TGI	> 100 µM
COc1ccc(C2C(=O)c3ccc(OC)cc3OC2c2cccnc2)cc1 (stereo not given)	HL-60(TB) leukemia	TGI	> 100 µM
Nc1nc(-c2ccccc2)c(CC(=O)O)s1	HL-60(TB) leukemia	TGI	83.1 µM

Reported TGI, compound O=C(Nc1cccc2ccccc12)c1cc2ccccc2oc1=O : ____ > 100 µM

Reported TGI, compound CN(C)c1cccc2c(S(=O)(=O)NCCN)cccc12 : ____ > 100 µM

* * *

# System: NCI-H522 lung
# PROCEDURE DETAILS: NCI tumour cell line growth inhibition, 48 h; in the data active = GI50 below about 0.43 µM; inactive = the rest
Permitted responses: active, inactive

COMPOUND	QUALITATIVE LABEL
C/C(=C/CCC(C)[C@@H]1CC[C@]2(C)C3=C(CC[C@@]12C)[C@@]1(C)CCC(=O)C(C)(C)[C@@H]1CC3)C(=O)O (some centres undefined)	inactive
CCOC(=O)c1cn(C)c2c(OC)c3ccccc3c(OC)c2c1=O	inactive
CCc1ccc(Oc2c(-c3ccc(OCc4ccc(Cl)cc4)cc3O)nn(C)c2C(F)(F)F)cc1	active

Any idea what this test logged for C/C(=N\NC(=S)N1CCC1)c1ccccn1 ? active

* * *

# Test system: EKVX NSCLC
# PROCEDURE DETAILS: NCI tumour cell line growth inhibition, 48 h
Entries and their measured TGI follow.

Here's what some known entries look like.
COMPOUND	REPORTED RESULT
CC(=O)Nc1cccc(C#Cc2cncnc2Nc2ccc(OCc3cccc(F)c3)c(Cl)c2)c1	> 21.5 µM
CN1CCCc2nc3ccccc3n2C1	> 100 µM
COc1cc2c(cc1OC)C1=C(C=O)c3ccc(OC)c(OC)c3C(O)N1CC2 (configuration not stated)	> 100 µM
COc1cc2c(cc1O)C(Cc1ccc(OCc3ccccc3)c(OCc3ccccc3)c1)N(C(=O)NCCc1ccccc1)CC2 (configuration not stated)	> 100 µM
O=C(/C=C\c1ccccc1)Oc1ccc(/C=C2\CCC/C(=C\c3ccc(OC(=O)/C=C\c4ccccc4)cc3)C2=O)cc1	> 100 µM

Reported TGI, compound CN(Cc1cnc2nc(N)nc(N)c2n1)c1ccc(C(=O)NC(CCC(=O)O)C(=O)O)c2ccccc12 (configuration not stated) : ____ > 1000 µM

Reported TGI, compound Cc1cc(-c2ccc(N=Nc3ccc4c(S(=O)(=O)O)cc(S(=O)(=O)O)c(N)c4c3O)c(C)c2)ccc1N=Nc1ccc2c(S(=O)(=O)O)cc(S(=O)(=O)O)c(N)c2c1O : ____ > 100 µM

Reported TGI, compound CCc1ccc(Oc2c(-c3ccc(OCc4ccc(Cl)cc4)cc3O)nn(C)c2C(F)(F)F)cc1 : ____ 2.98 µM

* * *

# Test system: NCI-H226 lung
# PROCEDURE DETAILS: NCI tumour cell line growth inhibition, 48 h
MEASUREMENT KIND: TGI

Here's what some known entries look like.
COMPOUND	TGI
O=C1Nc2noc(=O)nc2NO1	> 200 µM
CC(=O)CCC1(C(=O)OCC(C)C)CCCC1=O (stereo not given)	> 100 µM
CCCCCCCCCCCCCCCCNc1nc(=O)n(C2OC(C)C(O)C2O)cc1F (stereo not given)	40.6 µM
Nc1c(C(=O)Nc2ccccc2)sc2nc3c(cc12)C(=O)CCC3	> 100 µM
O=C(O)c1ccccc1NCn1nc(-c2ccccc2O)oc1=S	> 100 µM

Reported TGI, compound OCC1OC(OC2(CO)OC(CO)C(O)C2O)C(O)C(O)C1O (stereo not given) : ____ > 100 µM

Reported TGI, compound C/C(=C/CCC(C)[C@@H]1CC[C@]2(C)C3=C(CC[C@@]12C)[C@@]1(C)CCC(=O)C(C)(C)[C@@H]1CC3)C(=O)O (stereo not given in full) : ____ 4.56 µM

Reported TGI, compound COc1cc([C@@H]2c3cc4c(cc3[C@H](SC(=N)N)[C@H]3COC(=O)[C@H]23)OCO4)cc(OC)c1OC : ____ > 100 µM

Reported TGI, compound Nc1nc(Cl)c2ncn(Cc3ccc(C45CC6CC(CC(C6)C4)C5)c(OCc4cc(F)c(F)cc4F)c3)c2n1 : ____ 21.9 µM

Reported TGI, compound C[n+]1cn(CC(=O)c2ccccc2)c(C(N)=O)c1N : ____ > 100 µM

* * *

# Tested on: SF-268 CNS
# PROCEDURE DETAILS: NCI tumour cell line growth inhibition, 48 h
MEASUREMENT KIND: TGI

Here's what some known entries look like.
COMPOUND	TGI
CCOC(=O)c1cc(C(=O)c2ccc(OC)c(OC)c2)n2c1ccc1ccc3cccnc3c12	> 100 µM
CCOC(=O)C(Cc1ccc(N=NN(C)C)cc1)NC(=O)CC1c2ccccc2-c2ccccc21 (stereo unspecified)	> 100 µM
COCc1cc2c(s1)C(=O)C1=C(C2=O)C2(C=C(Br)C(=O)C(Br)=C2)CCN1	17.8 µM
CNC(=O)OCc1nc(SSc2nc(COC(=O)NC)c(COC(=O)NC)n2C)n(C)c1COC(=O)NC	> 100 µM
C/C(=N/NC(=S)Nc1ccc(C)cc1)c1ccccn1	16.4 µM

Reported TGI, compound O=C(CI)NC(=O)NC(=O)NCc1ccccc1 : ____ 21.6 µM

Reported TGI, compound COc1ccc(C2C(=O)c3ccc(OC)cc3OC2c2cccnc2)cc1 (stereo unspecified) : ____ > 100 µM

Reported TGI, compound Cc1ccc(S(=O)(=O)N/N=c2/sc3ccccc3n2C)cc1 : ____ > 100 µM

Reported TGI, compound CCCC(O)[C@@]1(CC)CC(C)C(O)(C2(C)C[C@H](C)[C@@H](C(CC)C(=O)C(C)[C@@H](O)[C@H](C)C3OC(O)(C(CC)C(=O)O)[C@@H](C)C(O)C3CC)O2)O1 (stereo partly specified) : ____ 2.21 µM

Reported TGI, compound CCN1C(=O)N(CC)C2C1NC(=S)N2/N=C/C=C/c1ccccc1 (stereo unspecified) : ____ > 100 µM

Reported TGI, compound OCC1OC(OC2(CO)OC(CO)C(O)C2O)C(O)C(O)C1O (stereo unspecified) : ____ > 100 µM

Reported TGI, compound CC(C)OC(=O)C(NC(=O)C(CC(=O)OCc1ccccc1)NC(=O)OCc1ccccc1)NC(=O)C1C(C)(C)CCC1(C)C (stereo unspecified) : ____ 45.9 µM

Reported TGI, compound Cc1cc(OC2OC(CO)C(O)C(O)C2O)ccc1O (stereo unspecified) : ____ > 100 µM

Reported TGI, compound Cc1cc(NC(=O)NC(=O)c2ccccc2NC(=O)CN(C)C)ccc1Oc1ncc(Br)cn1 : ____ > 100 µM

Reported TGI, compound O=C(Nc1ccccc1C(=O)NC(=O)c1ccccc1NC(=O)c1ccccc1)c1ccccc1 : ____ 22.2 µM

Reported TGI, compound N#Cc1cc(F)cc(Oc2ccc(S(=O)(=O)C(F)F)c3c2CC(F)(F)[C@H]3O)c1 : ____ > 100 µM

Reported TGI, compound CC(=O)O[C@H]1CC[C@@H](OC(C)=O)[C@H]2[C@H](O)[C@H](O)[C@@H]1n1c(=O)n(-c3ccccc3)c(=O)n12 : ____ > 100 µM

Reported TGI, compound CCOC(=O)CNC(=O)c1[nH]cnc1/N=N/N(C)C : ____ > 100 µM

Reported TGI, compound O=c1[nH]nc(Nc2ccc(Cl)cc2)c2nnn(C3CCCCC3)c12 : ____ > 100 µM

Reported TGI, compound Nc1nc(-c2ccccc2)c(CC(=O)O)s1 : ____ > 100 µM

Reported TGI, compound CCC(Oc1ccc(OC)c2c1C(=O)CCC2)C(=O)O (stereo unspecified) : ____ > 100 µM
